Experiment: Induction of anti-CD3/CD28 antibodies-stimulated human T cell activation at 0.3 uM assessed fold increase in CD25 expression measured by ELISA assay
Assay type: functional, T cell line
parameterMeasured: fold change (FC)

[[record]]
smilesstr = "COc1cc(C(=O)Nc2cccc(C3(Cc4nncn4C)COC3)c2)nc(C2CC2)n1"
assayvalue = 1.01

[[record]]
smilesstr = "C[C@H](Cc1nncn1C)c1cccc(N2Cc3c(cc([C@@H](C)N4CC(O)C4)cc3C(F)(F)F)C2=O)c1"
assayvalue = 1.01

[[record]]
smilesstr = "Cc1cc(C(=O)Nc2cccc([C@H](C)Cc3nncn3C)c2)nc(C2CC2)n1"
assayvalue = 1.51

[[record]]
smilesstr = "Cn1cnnc1C(F)(F)[C@](C)(F)c1cccc(N2Cc3c(cc(CN4CC[C@H](S(C)(=O)=O)C4)cc3C(F)(F)F)C2=O)c1"
assayvalue = 1.01

